- experimental_target: PFKFB3 (Homo sapiens, UniProt Q16875)
- Sequence (Q16875 whole entry): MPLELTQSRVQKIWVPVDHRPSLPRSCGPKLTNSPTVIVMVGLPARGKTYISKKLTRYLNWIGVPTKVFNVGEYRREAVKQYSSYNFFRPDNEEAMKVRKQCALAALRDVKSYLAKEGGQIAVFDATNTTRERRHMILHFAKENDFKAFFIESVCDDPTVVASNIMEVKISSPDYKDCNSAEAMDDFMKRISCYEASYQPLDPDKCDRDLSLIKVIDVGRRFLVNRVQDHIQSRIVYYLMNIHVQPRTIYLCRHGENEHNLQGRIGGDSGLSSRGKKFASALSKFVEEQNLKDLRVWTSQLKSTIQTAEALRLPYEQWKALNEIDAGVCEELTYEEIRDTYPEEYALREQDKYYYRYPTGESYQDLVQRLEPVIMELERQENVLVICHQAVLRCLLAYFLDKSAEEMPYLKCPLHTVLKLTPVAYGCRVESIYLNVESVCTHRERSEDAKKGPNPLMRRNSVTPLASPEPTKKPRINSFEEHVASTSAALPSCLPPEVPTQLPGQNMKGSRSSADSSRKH
- test_method_notes: Enzymatic activity of recombinant PFKFB3, ADP-Glo assay
- Assay type: biochemical
- measurement_conditions: Table 6; read-out: IC50 Rec PFKFB3

{"structure_string": "O=C(/C=C/c1ccc2ccc(C(F)(F)F)cc2n1)c1ccncc1", "IC50, nM": 137}

----------
- experimental_target: PFKFB3 (Homo sapiens)
- test_method_notes: Enzymatic activity of recombinant PFKFB3, ADP-Glo assay
- Format: biochemical
- measurement_conditions: Table 8; read-out: IC50, Enzymatic activity of PFKFB3, ADP-Glo Assay

{"molecule": "O=C(/C=C/c1ccc2cc(OCCN3CCCCC3)ccc2n1)c1ccncc1 [PFK-150]", "experimental_target": "PFKFB3 (Homo sapiens)", "IC50": "0.802 µM"}
{"molecule": "O=C(/C=C/c1ccc2ccc(C(F)(F)F)cc2n1)c1ccncc1 [PFK-158]", "experimental_target": "PFKFB3 (Homo sapiens)", "IC50": "0.137 µM"}
{"molecule": "O=C(/C=C/c1ccc2cccc(C(F)(F)F)c2n1)c1ccncc1 [PFK-153]", "experimental_target": "PFKFB3 (Homo sapiens)", "IC50": "0.173 µM"}
{"molecule": "COc1ccc2nc(/C=C/C(=O)c3ccnc(OC)c3)ccc2c1 [PFK-144]", "experimental_target": "PFKFB3 (Homo sapiens)", "IC50": "0.654 µM"}
{"molecule": "COc1ccc2nc(/C=C/C(=O)c3ccncc3)ccc2c1 [PFK-138]", "experimental_target": "PFKFB3 (Homo sapiens)", "IC50": "0.431 µM"}

----------
- Test system: Jurkat cells
- test_method_notes: Inhibition of 14C-2-deoxyglucose uptake
- Assay type: cell-based
- measurement_conditions: Homo sapiens, Jurkat; Table 8; read-out: IC50, Inhibition of 2 deoxyglucose uptake

{"compound": "COc1ccc2nc(/C=C/C(=O)c3ccncc3)ccc2c1 [PFK-138]", "experimental_target": "Jurkat cells", "IC50 / nM": 2200}
{"compound": "Cc1ccc2ccc(/C=C/C(=O)c3ccncc3)nc2c1 [PFK-154]", "experimental_target": "Jurkat cells", "IC50 / nM": 2200}
{"compound": "O=C(/C=C/c1ccc2cccc(C(F)(F)F)c2n1)c1ccncc1 [PFK-153]", "experimental_target": "Jurkat cells", "IC50 / nM": 1200}
{"compound": "COc1ccc2nc(/C=C/C(=O)c3ccnc(OC)c3)ccc2c1 [PFK-144]", "experimental_target": "Jurkat cells", "IC50 / nM": 3100}
{"compound": "O=C(/C=C/c1ccc2cc(OCCN3CCCCC3)ccc2n1)c1ccncc1 [PFK-150]", "experimental_target": "Jurkat cells", "IC50 / nM": 3800}

----------
- Test system: Jurkat cells
- test_method_notes: Inhibition of 14C-2-deoxyglucose uptake
- Type: cell-based
- measurement_conditions: Homo sapiens; Table 6; Jurkat cells; read-out: IC50 Glucose Uptake
pIC50: −log10 of the molar value.
measure_name: pIC50

{"structure_string": "O=C(/C=C/c1ccc2ccc(C(F)(F)F)cc2n1)c1ccncc1", "measure_name": "pIC50", "reported": 6.07}

----------
- experimental_target: PFKFB3 (Homo sapiens)
- test_method_notes: Enzymatic activity of PFKFB3 in cells (F2,6BP levels, Van Schaftingen method)
- Assay type: cell-based
- Design: endogenous in cells; host or cells: Jurkat cells
- measurement_conditions: Table 8; read-out: IC50, Enzymatic activity of PFKFB3 in cells
pIC50: −log10 of the molar value.

{"molecule": "O=C(/C=C/c1ccc2cccc(C(F)(F)F)c2n1)c1ccncc1 [PFK-153]", "experimental_target": "PFKFB3 (Homo sapiens)", "pIC50": 5.22}
{"molecule": "Cc1ccc2ccc(/C=C/C(=O)c3ccncc3)nc2c1 [PFK-154]", "experimental_target": "PFKFB3 (Homo sapiens)", "pIC50": 4.95}
{"molecule": "COc1ccc2nc(/C=C/C(=O)c3ccncc3)ccc2c1 [PFK-138]", "experimental_target": "PFKFB3 (Homo sapiens)", "pIC50": 5.13}
{"molecule": "O=C(/C=C/c1ccc2ccc(C(F)(F)F)cc2n1)c1ccncc1 [PFK-158]", "experimental_target": "PFKFB3 (Homo sapiens)", "pIC50": 5.80}
{"molecule": "O=C(/C=C/c1ccc2cc(OCCN3CCCCC3)ccc2n1)c1ccncc1 [PFK-150]", "experimental_target": "PFKFB3 (Homo sapiens)", "pIC50": 4.81}
{"molecule": "COc1ccc2nc(/C=C/C(=O)c3ccnc(OC)c3)ccc2c1 [PFK-144]", "experimental_target": "PFKFB3 (Homo sapiens)", "pIC50": 4.97}

Recorded values, source patent US9649305B2.
